Test system: Diglycosidase derived from P. multicolor
Test: Reactivity toward various isoflavone glycosides (HPLC)
Assay type: biochemical, Penicillium multicolor
Design: unit not given here
Settings: Reaction time 1 h; 55 °C, pH 4.0
Experimental: Diglycosidase was diluted with an acetate buffer of pH 4.0 to prepare a 0.75 AU/mL enzyme solution. […] The reaction was carried out at 55° C. and isolation of an aglycon isoflavone from an isoflavone glycoside in the reaction mixture was detected by HLPC at 0, 1, 3, and 6 hours of the reaction. […]
For each entry below, report its aglycon value.
Give bare numbers.

COc1cc2c(=O)c(-c3ccc(O)cc3)coc2cc1O[C@@H]1O[C@H](COC(C)=O)[C@@H](O)[C@H](O)[C@H]1O: 98

Return reported aglycon values for all items listed beneath this line.
1. O=C(O)CC(=O)OC[C@H]1O[C@@H](Oc2cc(O)c3c(=O)c(-c4ccc(O)cc4)coc3c2)[C@H](O)[C@@H](O)[C@@H]1O
2. CC(=O)OC[C@H]1O[C@@H](Oc2cc(O)c3c(=O)c(-c4ccc(O)cc4)coc3c2)[C@H](O)[C@@H](O)[C@@H]1O
3. CC(=O)OC[C@H]1O[C@@H](Oc2ccc3c(=O)c(-c4ccc(O)cc4)coc3c2)[C@H](O)[C@@H](O)[C@@H]1O
4. COc1cc2c(=O)c(-c3ccc(O)cc3)coc2cc1O[C@@H]1O[C@H](COC(=O)CC(=O)O)[C@@H](O)[C@H](O)[C@H]1O
5. O=c1c(-c2ccc(O)cc2)coc2cc(O[C@@H]3O[C@H](CO)[C@@H](O)[C@H](O)[C@H]3O)cc(O)c12

Reply:
74.2
99.8
89.6
78.3
0

----------
test system: Crude diglycosidase; test: Examination of temperature in the conversion into isoflavone aglycons by diglycosidase using soybean materials; assay type: biochemical, Penicillium multicolor IAM7153; design: concentration or dose not given beside the values; details: 55° C., heat treatment of enzyme yes, reaction time 6 h
measurement label: Decomposition efficiency of daidzin family in defatted soybean (%)
Answers are plain numbers, in %.

O=c1c(-c2ccc(O)cc2)coc2cc(O)ccc12: 55.9

Query: Which Decomposition efficiency of daidzin family in defatted soybean is listed for `O=C(O)CC(=O)OC[C@H]1O[C@@H](Oc2ccc3c(=O)c(-c4ccc(O)cc4)coc3c2)[C@H](O)[C@@H](O)[C@@H]1O` ?
Reply: 44.1

----------
tested on: Crude diglycosidase; assay: Examination of pH in the conversion into isoflavone aglycons by diglycosidase using soybean materials; type: biochemical, Penicillium multicolor IAM7153; conditions: pH3.4; heat treatment of enzyme: no; reaction time 0 h
measurement label: Decomposition efficiency of glycitin family in defatted soybean

COc1cc2c(=O)c(-c3ccc(O)cc3)coc2cc1O [glycitein]: not detected
COc1cc2c(=O)c(-c3ccc(O)cc3)coc2cc1O[C@@H]1O[C@H](COC(C)=O)[C@@H](O)[C@H](O)[C@H]1O [acetylglycitin, 6″-O-acetylglycitin]: not detected
COc1cc2c(=O)c(-c3ccc(O)cc3)coc2cc1O[C@@H]1O[C@H](COC(=O)CC(=O)O)[C@@H](O)[C@H](O)[C@H]1O [malonylglycitin, 6″-O-malonylglycitin]: 100.0%
COc1cc2c(=O)c(-c3ccc(O)cc3)coc2cc1O[C@@H]1O[C@H](CO)[C@@H](O)[C@H](O)[C@H]1O [glycitin]: not detected

----------
test system: Crude diglycosidase; experiment: Examination of pH in the conversion into isoflavone aglycons by diglycosidase using soybean materials; format: biochemical, Penicillium multicolor IAM7153; set-up: concentration or dose not given beside the values; conditions: pH3.4; heat treatment of enzyme: yes; reaction time 6 h
measurement label: Decomposition efficiency of daidzin family in defatted soybean (%)
One number for each entry, in %.

O=c1c(-c2ccc(O)cc2)coc2cc(O)ccc12 [daidzein]: 15.1
O=C(O)CC(=O)OC[C@H]1O[C@@H](Oc2ccc3c(=O)c(-c4ccc(O)cc4)coc3c2)[C@H](O)[C@@H](O)[C@@H]1O [malonyldaidzin, 6″-O-malonyldaidzin]: 37.1

Query: Which Decomposition efficiency of daidzin family in defatted soybean is listed for O=c1c(-c2ccc(O)cc2)coc2cc(O[C@@H]3O[C@H](CO)[C@@H](O)[C@H](O)[C@H]3O)ccc12 [daidzin] ?
Reply: 47.8
